Recorded values, source patent US20230093861A1.

Exercise: state measured IC50 for each of the compounds provided.
- System: P-Akt (S473)
- assay_remarks: Cell based AlphaLISA assay, inhibition of P-Akt (S473) (mTORC2 substrate phosphorylation) in MDA-MB-468 cells
- run_conditions: Homo sapiens, MDA-MB-468, 4 h, AlphaLISA, two to four hours at 37° C., read-out: pIC50 for Inhibition of mTORC1 and mTORC2 Substrate Phosphorylation, p-AKT 1/2/3 -(S473) (converted)

CO[C@H]1C[C@@H]2CC[C@@H](C)[C@@](O)(O2)C(=O)C(=O)N2CCCC[C@H]2C(=O)O[C@H]([C@H](C)C[C@@H]2CC[C@@H](O)[C@H](OC)C2)C[C@@H](O)[C@H](C)/C=C(\C)[C@@H](O)[C@@H](OC)C(=NOCc2cn(CCOCCOCCOCCOCCOCCOCCC(=O)NCCCCn3nc(-c4cc5cc(O)ccc5[nH]4)c4c(N)ncnc43)nn2)[C@H](C)C[C@H](C)/C=C/C=C/C=C/1C [Example 93]; > 1000 nM

# map each compound to its IC50
1. CO[C@H]1C[C@@H]2CC[C@@H](C)[C@@](O)(O2)C(=O)C(=O)N2CCCC[C@H]2C(=O)O[C@H]([C@H](C)C[C@@H]2CC[C@H](n3cc(CCCC(=O)NCCOCCOCCOCCC(=O)NCCOCCOCCOCCC(=O)NCCCCn4nc(-c5ccc6oc(N)nc6c5)c5c(N)ncnc54)nn3)[C@H](OC)C2)C[C@@H](OC)[C@H](C)/C=C(\C)[C@@H](O)[C@@H](OC)C(=O)[C@H](C)C[C@H](C)/C=C/C=C/C=C/1C [Example 164]
2. CCO[C@@H]1C[C@@H]([C@H](C)C[C@@H]2CC[C@H](n3cc(COC(=O)NCCOCCOCCOCCC(=O)NCCOCCOCCOCCC(=O)NCCCCn4nc(-c5cc6cc(O)ccc6[nH]5)c5c(N)ncnc54)nn3)[C@H](OC)C2)OC(=O)[C@@H]2CCCCN2C(=O)C(=O)[C@]2(O)O[C@@H](CC[C@H]2C)C[C@H](OC)/C(C)=C/C=C/C=C/[C@@H](C)C[C@@H](C)C(=O)[C@H](OC)[C@H](O)/C(C)=C/[C@H]1C [Example 150]

result:
1. 31.6 to 1000 nM
2. > 1000 nM

---

Exercise: state measured IC50 for each of the molecules provided.
- System: P-Akt (S473)
- assay_remarks: Cell based AlphaLISA assay, inhibition of P-Akt (S473) (mTORC2 substrate phosphorylation) in MDA-MB-468 cells
- run_conditions: Homo sapiens, MDA-MB-468, 4 h, AlphaLISA, two to four hours at 37° C., read-out: pIC50 for Inhibition of mTORC1 and mTORC2 Substrate Phosphorylation, p-AKT 1/2/3 -(S473) (converted)

For orientation, consider the following solved cases.
COc1cccc2cc(-c3nc([C@H]4CC[C@H](C(=O)NCCOCCOCCOCCNC(=O)CCOCCOCCOCCOCCn5cc(CCCCO[C@@H]6CC[C@@H](C[C@@H](C)[C@@H]7C[C@@H](OC)[C@H](C)/C=C(\C)[C@@H](O)[C@@H](OC)C(=O)[C@H](C)C[C@H](C)/C=C/C=C/C=C(\C)[C@@H](OC)C[C@@H]8CC[C@@H](C)[C@@](O)(O8)C(=O)C(=O)N8CCCC[C@H]8C(=O)O7)C[C@H]6OC)nn5)CC4)n4ncnc(N)c34)[nH]c12; 31.6 to 1000 nM
CO[C@H]1C[C@@H]2CC[C@@H](C)[C@@](O)(O2)C(=O)C(=O)N2CCCC[C@H]2C(=O)O[C@H]([C@H](C)C[C@@H]2CC[C@@H](OCCCCc3cn(CCOCCOCCOCCOCCOCCOCCOCCOCCC(=O)N(C)CCCCn4nc(-c5ccc6oc(N)nc6c5)c5c(N)ncnc54)nn3)[C@H](OC)C2)CC(=O)[C@H](C)/C=C(\C)[C@@H](O)[C@@H](OC)C(=O)[C@H](C)C[C@H](C)/C=C/C=C/C=C/1C; < 3.16 nM
CO[C@H]1C[C@@H]2CC[C@@H](C)[C@@](O)(O2)C(=O)C(=O)N2CCCC[C@H]2C(=O)O[C@H]([C@H](C)C[C@@H]2CC[C@H](n3cc(COC(=O)NCCOCCOCCOCCC(=O)NCc4cnc(N5CCN(c6ncc(C(=O)NCCCCn7nc(-c8cc9cc(O)ccc9[nH]8)c8c(N)ncnc87)cn6)CC5)nc4)nn3)[C@H](OC)C2)CC(=O)[C@H](C)/C=C(\C)[C@@H](O)[C@@H](OC)C(=O)[C@H](C)C[C@H](C)/C=C/C=C/C=C/1C; 3.16 to 31.6 nM
CO[C@H]1C[C@@H]2CC[C@@H](C)[C@@](O)(O2)C(=O)C(=O)N2CCCC[C@H]2C(=O)O[C@H]([C@H](C)C[C@@H]2CC[C@H](n3nncc3-c3cccc(-c4cn(CCOCCOCCOCCOCCOCCOCCOCCOCCC(=O)NCCCCn5nc(-c6ccc7oc(N)nc7c6)c6c(N)ncnc65)nn4)c3)[C@H](OC)C2)CC(=O)[C@H](C)/C=C(\C)[C@@H](O)[C@@H](OC)C(=O)[C@H](C)C[C@H](C)/C=C/C=C/C=C/1C; > 1000 nM

Lab note: next molecule to report on.
query: Request the reported IC50 associated with CO[C@H]1C[C@@H]2CC[C@@H](C)[C@@](O)(O2)C(=O)C(=O)N2CCCC[C@H]2C(=O)O[C@H]([C@H](C)C[C@@H]2CC[C@H](n3cc(-c4cnc(N5CCN(c6ncc(C(=O)NCCOCCOCCOCCOCCC(=O)N7CCc8cc(Cn9nc(-c%10ccc%11oc(N)nc%11c%10)c%10c(N)ncnc%109)ccc8C7)cn6)CC5)nc4)nn3)[C@H](OC)C2)CC(=O)[C@H](C)/C=C(\C)[C@@H](O)[C@@H](OC)C(=O)[C@H](C)C[C@H](C)/C=C/C=C/C=C/1C
result: > 1000 nM
